target: human D2 receptor (Homo sapiens (Human), UniProt P14416); experiment: Radioligand binding ([3H]-spiperone) to cloned receptors expressed in HEK-293 EBNA cells; conditions: HEK293 EBNA cell membranes expressing human D2
Sequence (P14416 whole entry): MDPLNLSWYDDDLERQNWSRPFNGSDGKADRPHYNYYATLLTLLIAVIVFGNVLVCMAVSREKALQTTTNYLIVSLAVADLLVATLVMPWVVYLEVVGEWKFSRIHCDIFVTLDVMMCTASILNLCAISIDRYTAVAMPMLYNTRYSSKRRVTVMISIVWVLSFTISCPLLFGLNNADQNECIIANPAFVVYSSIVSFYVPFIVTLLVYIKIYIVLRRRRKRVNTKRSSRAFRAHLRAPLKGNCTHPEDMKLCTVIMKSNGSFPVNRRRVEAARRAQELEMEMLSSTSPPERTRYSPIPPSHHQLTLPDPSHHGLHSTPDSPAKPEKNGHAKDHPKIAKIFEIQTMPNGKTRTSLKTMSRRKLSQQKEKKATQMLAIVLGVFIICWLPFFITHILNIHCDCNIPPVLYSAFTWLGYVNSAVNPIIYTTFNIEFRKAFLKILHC
Listed below: pKi values for each entry.
For clarity, pKi is expressed as the negative log10 of concentration in mol/L.

See these solved cases before continuing.
                                        mol                         system_under_test  quantity_name  quantitative_readout
0  COCCC(=O)N[C@H]1CC[C@H](CCN2CCC(c3cccc4c3CCO4)CC2)CC1  human D2 receptor (Homo sapiens (Human), UniProt P14416)            pKi                  6.29
1  CCC(=O)N[C@H]1CC[C@H](CCN2CCC(c3cccc4c3CCO4)CC2)CC1  human D2 receptor (Homo sapiens (Human), UniProt P14416)            pKi                  6.46
2  CS(=O)(=O)CC(=O)N[C@H]1CC[C@H](CCN2CCC(c3cccc4c3CCO4)CC2)CC1  human D2 receptor (Homo sapiens (Human), UniProt P14416)            pKi                  6.38

Here is another molecule to look at.
query: Give recorded pKi. CC(C)(C)CC(=O)N[C@H]1CC[C@H](CCN2CCC(c3cccc4c3CCO4)CC2)CC1
result: 6.40

----------
biological target: human D2 receptor (Homo sapiens (Human), UniProt P14416); assay: Radioligand binding ([3H]-spiperone) to cloned receptors expressed in HEK-293 EBNA cells; details: HEK293 EBNA cell membranes expressing human D2
Listed below: pKi values for each entry.
For clarity, pKi is expressed as the negative log10 of concentration in mol/L.

See these solved cases before continuing.
                                   molecule  quantity_name  quantitative_readout
0  O=S(=O)(N[C@H]1CC[C@H](CCN2CCC(c3cccc4c3CCO4)CC2)CC1)c1ccc(F)cc1 [Example 50]            pKi                  6.98
1  O=C(Cc1noc2ccccc12)N[C@H]1CC[C@H](CCN2CCC(c3cccc4c3CCO4)CC2)CC1 [Example 93]            pKi                  6.61
2  CC(C)(O)C(=O)N[C@H]1CC[C@H](CCN2CCC(c3cccc4c3CCO4)CC2)CC1 [Example 38]            pKi                  6.31

Here is another molecule to look at.
query: Give recorded pKi. O=C(N[C@H]1CC[C@H](CCN2CCC(c3cccc4c3CCO4)CC2)CC1)C(O)C(F)(F)F (mixture of isomers) [Example 37]
result: 6.62

----------
target: human 5-HT2A receptor (Homo sapiens (Human), UniProt P28223)
Sequence (P28223 whole entry): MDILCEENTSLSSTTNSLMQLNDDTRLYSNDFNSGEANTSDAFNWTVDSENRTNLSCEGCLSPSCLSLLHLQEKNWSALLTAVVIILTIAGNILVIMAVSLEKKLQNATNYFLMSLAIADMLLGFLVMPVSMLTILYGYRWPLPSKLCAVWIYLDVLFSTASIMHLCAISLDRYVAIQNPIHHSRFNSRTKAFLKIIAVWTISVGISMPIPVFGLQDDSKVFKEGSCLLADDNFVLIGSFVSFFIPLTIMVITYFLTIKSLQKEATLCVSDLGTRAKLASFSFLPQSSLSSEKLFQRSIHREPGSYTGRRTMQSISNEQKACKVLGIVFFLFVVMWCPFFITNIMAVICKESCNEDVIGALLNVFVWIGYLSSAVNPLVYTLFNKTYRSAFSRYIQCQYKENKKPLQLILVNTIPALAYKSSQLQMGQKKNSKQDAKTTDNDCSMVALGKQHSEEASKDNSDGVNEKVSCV
// assign fulfilled if Ki falls strictly below 60 nM, else not fulfilled (ties count as not fulfilled)

>>> print(df.to_string())
                                   molecule  classification
0  O=C(N[C@H]1CC[C@H](CCN2CCC(c3cccc4c3CCO4)CC2)CC1)C(F)(F)F       fulfilled
1  O=C(N[C@H]1CC[C@H](CCN2CCC(c3cccc4c3CCO4)CC2)CC1)c1ccc(N2CCS(=O)(=O)CC2)cc1       fulfilled
2  O=C(CO)N[C@H]1CC[C@H](CCN2CCC(c3cccc4c3CCO4)CC2)CC1       fulfilled

query: In plain terms, does CN(C)C(=O)CCC(=O)N[C@H]1CC[C@H](CCN2CCC(c3cccc4c3CCO4)CC2)CC1 come in under 60 nM for Ki?
result: not fulfilled

query: In plain terms, does CCCCC(=O)N[C@H]1CC[C@H](CCN2CCC(c3cccc4c3CCO4)CC2)CC1 come in under 60 nM for Ki?
result: not fulfilled

query: In plain terms, does O=C(CC1COCCO1)N[C@H]1CC[C@H](CCN2CCC(c3cccc4c3CCO4)CC2)CC1 (mixture of isomers) come in under 60 nM for Ki?
result: fulfilled
